Source: patent US6545152B1

Recorded measurements of melting point, one per entry

Consider the following illustrative entries.
C[C@@H](NC(=S)Nc1nccs1)C1CCCCC1 : 118 to 119 °C
C[C@@H](NC(=S)Nc1ccccn1)C1CCCCC1 : 125 to 127 °C
C[C@@H](NC(=S)Nc1ccc(Cl)cn1)c1ccccc1 : 185 to 187.5 °C
C[C@@H](NC(=S)Nc1ccc(Br)cn1)C1CCCCC1 : 176 to 177 °C

Kindly review the next molecule as well.
`C[C@@H](NC(=S)Nc1ccc(Br)cn1)c1ccccc1` yielded melting point of 170 to 172 °C

* * *

Test system: multidrug resistant HIV-1 strain RT-MDR (V106A, 74V, 41L, 215Y)
Test: microbe, parasite or virus in culture
Type: cell-based
Conditions: Human immunodeficiency virus 1, H9, read-out: IC50 RT-MDR
Recorded measurements of pIC50, one per entry
Field pIC50 (float): negative decimal logarithm of the concentration in molar.

C[C@@H](NC(=S)Nc1nccs1)C1CCCCC1 : 5.25

CC(C)Nc1cccnc1N1CCN(C(=O)c2cc3cc(NS(C)(=O)=O)ccc3[nH]2)CC1 [Delavirdine, reference compound] yielded pIC50 of 6.40

Cc1ccnc2c1NC(=O)c1cccnc1N2C1CC1 [Nevirapine, reference compound] yielded pIC50 of 5.30

S=C(NCCc1ccccn1)Nc1ccc(Br)cn1 [Trovirdine, reference compound] yielded pIC50 of 7.70

`C[C@@H](NC(=S)Nc1ccc(Br)cn1)C1CCCCC1` yielded pIC50 of 6.70

`C[C@@H](NC(=S)Nc1ccc(Br)cn1)c1ccccc1` yielded pIC50 of 8.30

CC(NC(=S)Nc1ccc(Cl)cn1)C1CCCCC1 (centres unmarked) yielded pIC50 of 7.22

`C[C@@H](NC(=S)Nc1ccc(Cl)cn1)c1ccccc1` yielded pIC50 of 8.00

* * *

Test system: HIV-1 strain HTLVIIIB
Test: p24 antigen assay of HIV-1 replication in human PBMC
Assay type: cell-based
Settings: Human immunodeficiency virus 1, PBMC, human PBMC, p24; read-out: IC50 HTLVIIIB
Recorded measurements of IC50, one per entry

Consider the following illustrative entries.
C[C@H](NC(=S)Nc1ccccn1)C1CCCCC1 [PHI-542] : > 1 µM
C[C@@H](NC(=S)Nc1ccc(Cl)cn1)c1ccccc1 [PHI-512^R] : 0.01 µM
C[C@@H](NC(=S)Nc1ccccn1)C1CCCCC1 [PHI-543] : > 1 µM
CC(C)Nc1cccnc1N1CCN(C(=O)c2cc3cc(NS(C)(=O)=O)ccc3[nH]2)CC1 [Delavirdine, reference compound] : 0.009 µM

Kindly review the next molecule as well.
Cc1ccnc2c1NC(=O)c1cccnc1N2C1CC1 [Nevirapine, reference compound] yielded IC50 of 0.034 µM

* * *

Test system: HIV-1 strain A17 variant (Y181C plus K103N)
Assay: microbe, parasite or virus in culture
Type: cell-based
Details: Human immunodeficiency virus 1, read-out: IC50 A17 (second column; A17 variant)
pIC50: −log10 of the molar value.
endpoint-name: pIC50

Consider the following illustrative entries.
S=C(NCCc1ccccn1)Nc1ccc(Br)cn1 [Trovirdine, reference compound] : < 4.00
Cc1ccnc2c1NC(=O)c1cccnc1N2C1CC1 [Nevirapine, reference compound] : < 4.00

Kindly review the next molecule as well.
Record for CC(C)Nc1cccnc1N1CCN(C(=O)c2cc3cc(NS(C)(=O)=O)ccc3[nH]2)CC1 [Delavirdine, reference compound] under target or system HIV-1 strain A17 variant (Y181C plus K103N): pIC50 reported as < 4.00
